Origin of measurements: patent EP1479388A1

assay: Maximum solubility in 66 Vol.-% ethanol after dissolving at 35-45 °C and cooling, HPLC (Beispiel 4); format: physicochemical; conditions: 66 vol% aqueous ethanol, organic solvent or mixture, dissolved at 35-45 °C 6 h, cooled, 24 h at 19-23 °C, read-out: maximale Löslichkeit (Gehalt im partikelfreien Überstand)
outcomeMeasure: solubility at 24 h (mg/mL)

{"compound": "Nc1ccn([C@@H]2O[C@H](CO)[C@@H](O)C2(F)F)c(=O)n1 [Gemcitabin, 2'-Deoxy-2',2'-difluorcytidin]", "outputUnit": "mg/mL", "obsValue": 95.1}

###

assay: Saturation concentration of gemcitabine in aqueous-ethanolic solutions, HPLC (Beispiel 3); type: physicochemical; details: 66 vol% aqueous ethanol, pH 10, organic solvent or mixture, interpolation (Polynom 6. Grades); ca. 66 Vol.% Ethanolanteil; pH 10 +/-0,5; read-out: Maximum der Gemcitabin-Löslichkeit

{"compound": "Nc1ccn([C@@H]2O[C@H](CO)[C@@H](O)C2(F)F)c(=O)n1 [Gemcitabin, 2'-Deoxy-2',2'-difluorcytidin]", "solubility thermodynamic": "50 mg/mL"}
